The origin of these recorded values is the kinase profiling compilation of Christmann-Franck et al. (2016).

Reported kinase still bound, per cent of control is given for each of the following compounds.
# TARGET SYSTEM: UniProt Q16539
# Sequence (Q16539 whole entry, looked up): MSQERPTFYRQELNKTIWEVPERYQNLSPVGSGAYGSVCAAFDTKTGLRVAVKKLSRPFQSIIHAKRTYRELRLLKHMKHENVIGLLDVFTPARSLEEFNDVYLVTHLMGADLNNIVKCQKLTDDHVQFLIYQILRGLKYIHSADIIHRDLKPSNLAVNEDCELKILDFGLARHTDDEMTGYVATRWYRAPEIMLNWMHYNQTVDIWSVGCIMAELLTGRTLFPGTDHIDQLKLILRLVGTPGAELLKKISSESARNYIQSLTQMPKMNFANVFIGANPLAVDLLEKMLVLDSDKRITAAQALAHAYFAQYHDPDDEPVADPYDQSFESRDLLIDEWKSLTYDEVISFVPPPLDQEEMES
# EXPERIMENT NOTES: KINOMEscan competition binding
# DETAILS: compound 10.0 µM
ASSAY READOUT: kinase still bound, per cent of control (%)

Cc1cnc(-c2cnc(NCCNc3ccc(C#N)cn3)nc2-c2ccc(Cl)cc2Cl)[nH]1 98
Cn1cc(C2=C(c3ccc(Cl)cc3Cl)C(=O)NC2=O)c2ccccc21 72
COc1ccc(CNC(=O)Nc2ncc([N+](=O)[O-])s2)cc1 100
O=C1Nc2cc(Br)ccc2/C1=C1/Nc2ccccc2/C1=N\O 92
